Data provenance is ChEMBL document CHEMBL5291721.

Consider the following compounds; for each one, report its AC50.
TEST TARGET: Muscarinic acetylcholine receptor M2 (Homo sapiens, UniProt P08172); also: assay procedure not described here
Sequence (P08172 whole entry): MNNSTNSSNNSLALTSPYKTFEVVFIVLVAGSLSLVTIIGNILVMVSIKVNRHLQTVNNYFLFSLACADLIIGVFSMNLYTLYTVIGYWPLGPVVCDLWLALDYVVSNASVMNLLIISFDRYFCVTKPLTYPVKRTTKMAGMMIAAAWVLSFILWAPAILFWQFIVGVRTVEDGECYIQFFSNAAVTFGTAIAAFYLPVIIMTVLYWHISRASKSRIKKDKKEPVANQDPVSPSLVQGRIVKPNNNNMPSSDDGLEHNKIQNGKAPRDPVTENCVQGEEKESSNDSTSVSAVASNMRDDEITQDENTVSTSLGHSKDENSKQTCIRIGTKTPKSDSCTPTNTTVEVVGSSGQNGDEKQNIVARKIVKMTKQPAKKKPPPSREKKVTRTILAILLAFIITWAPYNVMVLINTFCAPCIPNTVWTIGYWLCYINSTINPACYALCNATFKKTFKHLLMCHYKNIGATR
Type: functional, cell-based

{"columns": ["COMPOUND", "TEST TARGET", "MEASURED QUANTITY", "EXPERIMENTAL RESULT"],
 "data": [
  ["CN(C)CC/C=C1\\c2ccccc2CSc2ccccc21 [DOTHIEPIN]", "Muscarinic acetylcholine receptor M2 (Homo sapiens, UniProt P08172)", "AC50", "> 30 µM"],
  ["COc1ccc(-c2ccc3cc(C(=O)O)ccc3c2)cc1C12CC3CC(CC(C3)C1)C2", "Muscarinic acetylcholine receptor M2 (Homo sapiens, UniProt P08172)", "AC50", "> 30 µM"],
  ["CC(=O)OCC(=O)[C@@]12N=C(C)O[C@@H]1C[C@H]1[C@@H]3CCC4=CC(=O)C=C[C@]4(C)[C@H]3[C@@H](O)C[C@@]12C", "Muscarinic acetylcholine receptor M2 (Homo sapiens, UniProt P08172)", "AC50", "> 30 µM"],
  ["Cc1cn([C@H]2C=C[C@@H](CO)O2)c(=O)[nH]c1=O", "Muscarinic acetylcholine receptor M2 (Homo sapiens, UniProt P08172)", "AC50", "> 10 µM"],
  ["CC1(C)O[C@@H]2C[C@H]3[C@@H]4CCC5=CC(=O)C=C[C@]5(C)[C@H]4[C@@H](O)C[C@]3(C)[C@]2(C(=O)CO)O1 [DESONIDE]", "Muscarinic acetylcholine receptor M2 (Homo sapiens, UniProt P08172)", "AC50", "> 10 µM"],
  ["NCC[C@H](O)C(=O)N[C@@H]1C[C@H](N)[C@@H](O[C@H]2O[C@H](CN)[C@@H](O)[C@H](O)[C@H]2O)[C@H](O)[C@H]1O[C@H]1O[C@H](CO)[C@@H](O)[C@H](N)[C@H]1O", "Muscarinic acetylcholine receptor M2 (Homo sapiens, UniProt P08172)", "AC50", "> 10 µM"],
  ["CO[C@H]1C[C@@H]2CC[C@@H](C)[C@@](O)(O2)C(=O)C(=O)N2CCCC[C@H]2C(=O)O[C@H]([C@H](C)C[C@@H]2CC[C@@H](O)[C@H](OC)C2)CC(=O)[C@H](C)/C=C(\\C)[C@@H](O)[C@@H](OC)C(=O)[C@H](C)C[C@H](C)/C=C/C=C/C=C/1C", "Muscarinic acetylcholine receptor M2 (Homo sapiens, UniProt P08172)", "AC50", "> 10 µM"],
  ["Cc1cc(O)c(C(=O)N[C@@H](C(=O)N[C@@H]2C(=O)N3C(C(=O)O)=C(CSc4nnnn4C)CS[C@H]23)c2ccc(O)cc2)cn1 [CEFPIRAMIDE]", "Muscarinic acetylcholine receptor M2 (Homo sapiens, UniProt P08172)", "AC50", "> 30 µM"]
]}

For each of the compounds below, note its AC50.
1. O=[N+]([O-])O[C@@H]1CO[C@H]2[C@@H]1OC[C@@H]2O [ISOSORBIDE MONONITRATE]
2. NCC(CC(=O)O)c1ccc(Cl)cc1 (configuration not stated)
3. CN(C)/N=N/c1[nH]cnc1C(N)=O
4. CC[C@@H](C(N)=O)N1CCCC1=O

["> 10 µM", "> 30 µM", "> 10 µM", "> 30 µM"]

* * *

TEST TARGET: Adenosine receptor A2a (Homo sapiens); also: assay procedure not described here
Sequence (P29274 whole entry): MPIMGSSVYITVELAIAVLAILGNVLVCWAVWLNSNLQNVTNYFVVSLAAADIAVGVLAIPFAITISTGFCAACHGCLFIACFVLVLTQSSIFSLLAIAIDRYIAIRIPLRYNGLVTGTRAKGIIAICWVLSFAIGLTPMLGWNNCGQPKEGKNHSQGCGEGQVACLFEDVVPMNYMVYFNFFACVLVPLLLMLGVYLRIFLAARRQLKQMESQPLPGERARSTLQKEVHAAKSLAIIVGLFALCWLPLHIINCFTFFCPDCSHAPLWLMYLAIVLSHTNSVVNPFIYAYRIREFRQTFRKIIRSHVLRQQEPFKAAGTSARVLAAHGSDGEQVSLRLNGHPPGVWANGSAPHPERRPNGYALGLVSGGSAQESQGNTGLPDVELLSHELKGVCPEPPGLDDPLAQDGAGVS
MEASURED QUANTITY: AC50

Dear colleague, could you please provide AC50 for the molecules listed below?
1. CN(C)CCC=C1c2ccccc2C=Cc2ccccc21
2. CCCCc1ncc(/C=C(\Cc2cccs2)C(=O)O)n1Cc1ccc(C(=O)O)cc1
3. CCCCCCOc1ccccc1C(N)=O [EXALAMIDE]

1. > 30 µM
2. > 10 µM
3. > 30 µM

* * *

Quick note: these are AC50 numbers for system: D(1B) dopamine receptor (Homo sapiens, UniProt P21918); also: assay procedure not described here
Sequence (P21918 whole entry): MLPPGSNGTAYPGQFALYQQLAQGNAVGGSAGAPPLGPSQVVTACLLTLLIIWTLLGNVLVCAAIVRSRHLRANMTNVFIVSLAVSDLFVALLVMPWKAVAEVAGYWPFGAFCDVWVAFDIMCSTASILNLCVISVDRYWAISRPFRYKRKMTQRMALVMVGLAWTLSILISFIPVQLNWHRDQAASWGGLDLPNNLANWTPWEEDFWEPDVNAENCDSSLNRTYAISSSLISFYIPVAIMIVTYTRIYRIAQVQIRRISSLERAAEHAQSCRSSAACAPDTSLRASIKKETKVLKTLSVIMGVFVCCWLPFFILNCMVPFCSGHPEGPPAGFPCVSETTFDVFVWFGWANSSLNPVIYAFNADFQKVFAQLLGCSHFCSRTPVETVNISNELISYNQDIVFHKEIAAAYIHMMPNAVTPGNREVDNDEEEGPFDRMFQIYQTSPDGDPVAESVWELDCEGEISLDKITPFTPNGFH

{"columns": ["COMPOUND", "TEST TARGET", "AC50"],
 "data": [
  ["CS(=O)(=O)c1ccc(C2=C(c3ccccc3)C(=O)OC2)cc1", "D(1B) dopamine receptor (Homo sapiens, UniProt P21918)", "> 10 µM"],
  ["N#Cc1ccc([C@H]2CCc3cncn32)c(F)c1", "D(1B) dopamine receptor (Homo sapiens, UniProt P21918)", "> 10 µM"],
  ["NCC(CC(=O)O)c1ccc(Cl)cc1 (stereo not drawn)", "D(1B) dopamine receptor (Homo sapiens, UniProt P21918)", "> 10 µM"]
]}

State recorded AC50 for all listed compounds.
1. CCCCc1ncc(/C=C(\Cc2cccs2)C(=O)O)n1Cc1ccc(C(=O)O)cc1
2. CN(C)CCC(c1ccc(Cl)cc1)c1ccccn1 (stereo not drawn)
3. CCOc1ccccc1OCC1CNCCO1 (stereo not drawn)
4. Cc1ccc(-c2cc(C(F)(F)F)nn2-c2ccc(S(N)(=O)=O)cc2)cc1

1: > 10 µM; 2: > 10 µM; 3: > 10 µM; 4: > 10 µM

Given the compound Cc1c(C(=O)NN2CCCCC2)nn(-c2ccc(Cl)cc2Cl)c1-c1ccc(Cl)cc1 , what is its reported AC50? > 10 µM

* * *

Would you mind telling me the reported AC50 of each entry?
TEST TARGET: Histamine H2 receptor (Homo sapiens, UniProt P25021); also: assay procedure not described here
Sequence (P25021 whole entry): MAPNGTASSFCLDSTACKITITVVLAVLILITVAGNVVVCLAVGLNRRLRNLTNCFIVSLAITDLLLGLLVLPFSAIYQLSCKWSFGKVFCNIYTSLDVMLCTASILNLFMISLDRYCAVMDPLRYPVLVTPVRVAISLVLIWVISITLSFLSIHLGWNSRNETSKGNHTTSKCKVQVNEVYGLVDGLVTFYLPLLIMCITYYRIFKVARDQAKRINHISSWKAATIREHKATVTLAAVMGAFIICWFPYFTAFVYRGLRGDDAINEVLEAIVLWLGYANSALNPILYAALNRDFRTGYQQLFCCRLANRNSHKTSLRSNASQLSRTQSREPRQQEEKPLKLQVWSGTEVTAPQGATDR
Assay type: functional, cell-based

{"columns": ["MOLECULE", "TEST TARGET", "AC50"],
 "data": [
  ["COc1ccc2c3c1O[C@H]1C(=O)CC[C@@]4(O)[C@@H](C2)N(C)CC[C@]314", "Histamine H2 receptor (Homo sapiens, UniProt P25021)", "> 30 µM"],
  ["O=C(O)[C@H](CC(=O)N1C[C@H]2CCCC[C@H]2C1)Cc1ccccc1 [MITIGLINIDE]", "Histamine H2 receptor (Homo sapiens, UniProt P25021)", "> 10 µM"],
  ["CCCCc1ncc(/C=C(\\Cc2cccs2)C(=O)O)n1Cc1ccc(C(=O)O)cc1", "Histamine H2 receptor (Homo sapiens, UniProt P25021)", "> 10 µM"],
  ["Cc1nnc2n1-c1ccc(Cl)cc1C(c1ccccc1Cl)=NC2", "Histamine H2 receptor (Homo sapiens, UniProt P25021)", "> 10 µM"],
  ["COc1ccc2c3c1O[C@H]1[C@@H](O)C=C[C@H]4[C@@H](C2)N(C)CC[C@@]341", "Histamine H2 receptor (Homo sapiens, UniProt P25021)", "> 10 µM"],
  ["Cc1cc(O)c(C(=O)N[C@@H](C(=O)N[C@@H]2C(=O)N3C(C(=O)O)=C(CSc4nnnn4C)CS[C@H]23)c2ccc(O)cc2)cn1 [CEFPIRAMIDE]", "Histamine H2 receptor (Homo sapiens, UniProt P25021)", "> 30 µM"],
  ["CCCC(=O)O[C@]1(C(=O)CO)CC[C@H]2[C@@H]3CCC4=CC(=O)CC[C@]4(C)[C@H]3[C@@H](O)C[C@@]21C [HYDROCORTISONE BUTYRATE]", "Histamine H2 receptor (Homo sapiens, UniProt P25021)", "> 10 µM"]
]}

// moving on: another record for AC50
Requested read-out AC50, target or system Histamine H2 receptor (Homo sapiens, UniProt P25021), entry Cc1ccc(-n2nccn2)c(C(=O)N2CCN(c3nc4cc(Cl)ccc4o3)CC[C@H]2C)c1 > 30 µM

* * *

TEST TARGET: Histamine H2 receptor (Homo sapiens, UniProt P25021); also: assay procedure not described here
Assay type: functional, cell-based
Give AC50 for every item shown.

{"columns": ["COMPOUND", "TEST TARGET", "MEASURED QUANTITY", "EXPERIMENTAL RESULT"],
 "data": [
  ["CC(=O)O[C@H]1C[C@@H]2CC[C@@H]3[C@H](CC[C@@]4(C)[C@H]3C[C@H]([N+]3(C)CCCCC3)[C@@H]4OC(C)=O)[C@@]2(C)C[C@@H]1N1CCCCC1 [VECURONIUM]", "Histamine H2 receptor (Homo sapiens, UniProt P25021)", "AC50", "> 30 µM"],
  ["CN1[C@@H]2CC[C@H]1C[C@@H](OC(c1ccccc1)c1ccccc1)C2 [BENZTROPINE]", "Histamine H2 receptor (Homo sapiens, UniProt P25021)", "AC50", "> 30 µM"],
  ["CC(C)OC(=O)CCC/C=C\\C[C@@H]1[C@@H](CC[C@@H](O)CCc2ccccc2)[C@H](O)C[C@@H]1O [LATANOPROST]", "Histamine H2 receptor (Homo sapiens, UniProt P25021)", "AC50", "> 30 µM"],
  ["O=C(NCCN1CCOCC1)c1ccc(Cl)cc1 [MOCLOBEMIDE]", "Histamine H2 receptor (Homo sapiens, UniProt P25021)", "AC50", "> 10 µM"]
]}

Kindly give each listed record's AC50.
1. CN1C(=O)CCS(=O)(=O)C1c1ccc(Cl)cc1 (stereo not drawn) [CHLORMEZANONE]
2. OC(CNCC(O)C1CCc2cc(F)ccc2O1)C1CCc2cc(F)ccc2O1 (stereo not drawn) [NEBIVOLOL]
3. CN(C)CCC=C1c2ccccc2C=Cc2ccccc21 [CYCLOBENZAPRINE]
4. CC(C(=O)O)c1ccc(N2Cc3ccccc3C2=O)cc1 (stereo not drawn) [INDOPROFEN]

> 30 µM
> 30 µM
> 10 µM
> 30 µM
